Cited source for all entries: ChEMBL document CHEMBL1142149

Provide the recorded MIC50 for the entries that follow.
# System: Staphylococcus aureus
# method: Antimicrobial activity against methicillin-resistant Staphylococcus aureus ATCC 43300
# Type: functional
# experimental.parameters: Staphylococcus aureus, ATCC 43300

Reference set, count: 4
compound	recorded.measurement
C[C@H]1c2cccc(O)c2C(=O)C2=C(O)[C@]3(O)C(=O)C(C(N)=O)=C(O)[C@@H](N(C)C)[C@@H]3[C@@H](O)[C@@H]21.O [DOXYCYCLINE]	4 µg/mL
CCCCCCCCCCCCCCCC(=O)N[C@@H](CCCCN)C(=O)N[C@@H](CCCCN)C(=O)O	4 µg/mL
CN[C@H](CC(C)C)C(=O)N[C@H]1C(=O)N[C@@H](CC(N)=O)C(=O)N[C@H]2C(=O)N[C@H]3C(=O)N[C@H](C(=O)N[C@H](C(=O)O)c4cc(O)cc(O)c4-c4cc3ccc4O)[C@H](O)c3ccc(c(Cl)c3)Oc3cc2cc(c3O[C@@H]2O[C@H](CO)[C@@H](O)[C@H](O)[C@H]2O[C@H]2C[C@](C)(N)[C@H](O)[C@H](C)O2)Oc2ccc(cc2Cl)[C@H]1O [VANCOMYCIN]	0.5 µg/mL
CCCCCCCCCCCCCCCC(=O)N[C@@H](CCCCN)C(=O)N[C@@H](CCCCN)C(N)=O	4 µg/mL

Req: Need MIC50 of CC(=O)NC[C@H]1CN(c2ccc(N3CCOCC3)c(F)c2)C(=O)O1 [LINEZOLID] , thanks.
Resp: 0.5 µg/mL

###

# System: Enterococcus faecalis
# method: Antimicrobial activity against vancomycin-susceptible Enterococcus faecalis ATCC 29212
# Format: functional
Provide the recorded MBC50 for the entries that follow.
Give bare numbers, in mg/L.

Reference set, count: 3
compound	system	recorded.measurement
CN[C@H](CC(C)C)C(=O)N[C@H]1C(=O)N[C@@H](CC(N)=O)C(=O)N[C@H]2C(=O)N[C@H]3C(=O)N[C@H](C(=O)N[C@H](C(=O)O)c4cc(O)cc(O)c4-c4cc3ccc4O)[C@H](O)c3ccc(c(Cl)c3)Oc3cc2cc(c3O[C@@H]2O[C@H](CO)[C@@H](O)[C@H](O)[C@H]2O[C@H]2C[C@](C)(N)[C@H](O)[C@H](C)O2)Oc2ccc(cc2Cl)[C@H]1O	Enterococcus faecalis	2
C[C@H]1c2cccc(O)c2C(=O)C2=C(O)[C@]3(O)C(=O)C(C(N)=O)=C(O)[C@@H](N(C)C)[C@@H]3[C@@H](O)[C@@H]21.O	Enterococcus faecalis	16
CCCCCCCCCCCCCCCC(=O)N[C@@H](CCCCN)C(=O)N[C@@H](CCCCN)C(N)=O	Enterococcus faecalis	4

# return MBC50 for each item in the list
1. C[C@@H](O)[C@H]1C(=O)N2C(C(=O)O)=C(SCCNC=N)C[C@H]12 [IMIPENEM ANHYDROUS]
2. CCCCCCCCCCCCCCCC(=O)N[C@@H](CCCCN)C(=O)N[C@@H](CCCCN)C(=O)O

Resp:
1. 16
2. 4

###

# Test system: Streptococcus pyogenes
# method: Antimicrobial activity against Streptococcus pyogenes ATCC 19615
# Format: functional
endpoint.name: MBC90

Reference set, count: 3
compound	MBC90
CC(=O)NC[C@H]1CN(c2ccc(N3CCOCC3)c(F)c2)C(=O)O1	2 µg/mL
CCCCCCCCCCCCCCCC(=O)N[C@@H](CCCCN)C(=O)N[C@@H](CCCCN)C(=O)O	4 µg/mL
CC1(C)S[C@@H]2[C@H](NC(=O)[C@H](N)c3ccc(O)cc3)C(=O)N2[C@H]1C(=O)O	8 µg/mL

# return MBC90 for each item in the list
1. C[C@H]1c2cccc(O)c2C(=O)C2=C(O)[C@]3(O)C(=O)C(C(N)=O)=C(O)[C@@H](N(C)C)[C@@H]3[C@@H](O)[C@@H]21.O
2. CN[C@H](CC(C)C)C(=O)N[C@H]1C(=O)N[C@@H](CC(N)=O)C(=O)N[C@H]2C(=O)N[C@H]3C(=O)N[C@H](C(=O)N[C@H](C(=O)O)c4cc(O)cc(O)c4-c4cc3ccc4O)[C@H](O)c3ccc(c(Cl)c3)Oc3cc2cc(c3O[C@@H]2O[C@H](CO)[C@@H](O)[C@H](O)[C@H]2O[C@H]2C[C@](C)(N)[C@H](O)[C@H](C)O2)Oc2ccc(cc2Cl)[C@H]1O
3. CC[C@H]1OC(=O)[C@H](C)[C@@H](O[C@H]2C[C@@](C)(OC)[C@@H](O)[C@H](C)O2)[C@H](C)[C@@H](O[C@@H]2O[C@H](C)C[C@H](N(C)C)[C@H]2O)[C@](C)(O)C[C@@H](C)C(=O)[C@H](C)[C@@H](O)[C@]1(C)O
4. C[C@@H](O)[C@H]1C(=O)N2C(C(=O)O)=C(SCCNC=N)C[C@H]12 [IMIPENEM ANHYDROUS]
5. CCCCCCCCCCCCCCCC(=O)N[C@@H](CCCCN)C(=O)N[C@@H](CCCCN)C(N)=O

Resp:
["16 µg/mL", "2 µg/mL", "32 µg/mL", "4 µg/mL", "4 µg/mL"]
